Biological target: IP receptor (Homo sapiens, UniProt P43119)
Construct: one million cells in 160 μl aliquot of cell suspension were put in a well of 96 well plate
Sequence (P43119 whole entry): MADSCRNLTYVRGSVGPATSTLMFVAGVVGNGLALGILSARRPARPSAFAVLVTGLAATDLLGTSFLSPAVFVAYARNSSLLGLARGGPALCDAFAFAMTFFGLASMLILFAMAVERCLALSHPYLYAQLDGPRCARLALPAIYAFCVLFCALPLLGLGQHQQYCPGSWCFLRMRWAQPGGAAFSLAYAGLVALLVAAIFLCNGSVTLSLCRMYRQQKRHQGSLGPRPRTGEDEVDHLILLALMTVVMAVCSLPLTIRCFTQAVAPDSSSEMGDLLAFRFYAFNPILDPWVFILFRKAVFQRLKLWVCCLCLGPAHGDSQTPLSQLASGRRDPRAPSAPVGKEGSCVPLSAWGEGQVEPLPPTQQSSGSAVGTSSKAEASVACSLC
Test: IP receptor binding/cAMP in HEL cells ([3H]-iloprost binding, Assay 1; iloprost-induced cAMP production, Assay 2)
Settings: compounds of about 40 to 90% purity, read-out: In vitro activity grade (IC50 class)
pIC50: −log10 of the molar value.
value-kind: pIC50

Sample answers from the record:
compound: O=C(O)C(Cc1ccccn1)Nc1cc(-c2ccc(OCC3CC3)c(F)c2)ncn1 (stereo not shown)
value-kind: pIC50
result: 6.00 to 7.00
--
compound: O=C(Nc1ccccc1)c1ccc(-c2cc(NC(Cc3ccccc3)C(=O)O)ncn2)cc1 (stereo not shown)
value-kind: pIC50
result: 6.00 to 7.00
--
compound: CN(C)CCOc1cccc(C[C@H](Nc2cc(-c3ccc(OCc4ccccc4)cc3)ncn2)C(=O)O)c1
value-kind: pIC50
result: > 7.00
--
compound: O=C(O)C(Cc1ccccc1)Nc1cc(-c2ccc(-c3cccc4ccccc34)cc2)ncn1 (stereo not shown)
value-kind: pIC50
result: 6.00 to 7.00
--
compound: O=C(O)[C@H](Cc1ccccc1)Nc1cc(-c2ccc(OCC3CC3)cc2)ncn1 [Example 1-49]
value-kind: pIC50
result: < 6.00

Exam item: Entry O=C(O)C(Cc1ccccc1)Nc1cc(-c2ccc(-c3ccc4ccccc4c3)cc2)ncn1 (stereo not shown) has what pIC50?
Marked response: > 7.00

Exam item: Entry O=C(O)C(COCc1ccccc1)Nc1cc(-c2ccc(OCc3ccccc3)cc2)ncn1 (stereo not shown) has what pIC50?
Marked response: > 7.00

Exam item: Entry O=C(O)C(Cc1ccccc1)Nc1cc(-c2ccc(OCC3CCCCC3)cc2)ncn1 (stereo not shown) has what pIC50?
Marked response: > 7.00

Exam item: Entry CSCCC(Nc1cc(-c2ccc(OCc3ccccc3)cc2)ncn1)C(=O)O (stereo not shown) has what pIC50?
Marked response: > 7.00

Exam item: Entry O=C(O)C(Cc1ccccc1)Nc1cc(-c2ccc(CCc3ccccc3)cc2)ncn1 (stereo not shown) has what pIC50?
Marked response: > 7.00
